# TEST NAME: Phase 1 Stage 1 clinical pharmacokinetics of SC ZA co-administered with rHuPH20
# Format: in vivo, human
# MEASUREMENT SETUP: human, serum; Subj 8; ZA 0.0032 mg/kg SC; inf 0.531 hr; PH20 22944 U; read-out: T½ λz (converted)

- MOLECULE: "O=P(O)(O)C(O)(Cn1ccnc1)P(=O)(O)O [ZA]"
  half-life, h: 3.09

* * *

# TEST NAME: Phase 1 Stage 1 clinical pharmacokinetics of SC ZA co-administered with rHuPH20
# Type: in vivo, human
# MEASUREMENT SETUP: human, serum, sc, ZA 2 mg SC + 24000 U rHuPH20; individual subjects; read-out: AUC (0-∞)

- INPUT SMILES: "O=P(O)(O)C(O)(Cn1ccnc1)P(=O)(O)O"
  AUC(0-inf) [ng·h/mL]: 246

* * *

# TEST NAME: Phase 1 Stage 1 clinical pharmacokinetics of SC ZA co-administered with rHuPH20
# Format: in vivo, human
# MEASUREMENT SETUP: human, serum, sc, serum; ZA 0.5 mg SC infusion + 24000 Units rHuPH20; 10 min post infusion; n=3; read-out: Mean Conc.

- INPUT SMILES: "O=P(O)(O)C(O)(Cn1ccnc1)P(=O)(O)O"
  concentration at 10 min (ng/mL): 15

* * *

# TEST NAME: Phase 1 Stage 1 clinical pharmacokinetics of SC ZA co-administered with rHuPH20
# Format: in vivo, human
# MEASUREMENT SETUP: human, serum, sc, 0.5 mg, ZA 0.5 mg; SC […] infusion, 100 mL, 3 mL/min, 24000 Units rHuPH20; extrapolated to ∞; individual subjects; read-out: SC MRT

- INPUT SMILES: "O=P(O)(O)C(O)(Cn1ccnc1)P(=O)(O)O"
  MRT / h: 3.19

* * *

# TEST NAME: Phase 1 Stage 1 clinical pharmacokinetics of SC ZA co-administered with rHuPH20
# Type: in vivo, human
# MEASUREMENT SETUP: human, serum, sc, […], AUC (0-12 h), Subj 18; ZA […] SC; inf […]; PH20 23304 U

- INPUT SMILES: "O=P(O)(O)C(O)(Cn1ccnc1)P(=O)(O)O"
  AUC(0-t) (ng·h/mL): 66.2

* * *

# TEST NAME: Phase 1 Stage 1 clinical pharmacokinetics of SC ZA co-administered with rHuPH20
# Type: in vivo, human
# MEASUREMENT SETUP: human, serum, sc, ZA 0.5 mg SC + 24000 U rHuPH20; individual subjects; read-out: Vss/F

- COMPOUND: "O=P(O)(O)C(O)(Cn1ccnc1)P(=O)(O)O [ZA]"
  Vd/F: "0.451 L/kg"

* * *

# TEST NAME: Phase 1 Stage 1 clinical pharmacokinetics of SC ZA co-administered with rHuPH20
# Format: in vivo, human
# MEASUREMENT SETUP: human, serum, sc, serum; ZA 0.25 mg SC infusion + 24000 Units rHuPH20; 4 h post infusion; n=3; read-out: Mean Conc.

- INPUT SMILES: "O=P(O)(O)C(O)(Cn1ccnc1)P(=O)(O)O"
  concentration at 4 h, ng/mL: 3.02

* * *

# TEST NAME: Pharmacokinetics of ZA in pig serum after IV or SC infusion with or without rHuPH20 (LC-MS-MS, non-compartmental analysis)
# Format: in vivo
# MEASUREMENT SETUP: female, Yorkshire, pig, serum, subcutaneous, […], pig 64, Study Group 3, SC, ZA […], rHuPH20 10000 U/mL, 100 mL over 16 min, time 4 h; read-out: Zoledronic Acid Serum Concentration

- INPUT SMILES: "O=P(O)(O)C(O)(Cn1ccnc1)P(=O)(O)O"
  concentration at 4 h [ng/mL]: 19

* * *

# TEST NAME: Pharmacokinetics of ZA in pig serum after IV or SC infusion with or without rHuPH20 (LC-MS-MS, non-compartmental analysis)
# Assay type: in vivo
# MEASUREMENT SETUP: female, Yorkshire, pig, serum, subcutaneous, […], pig 64, Study Group 3, SC, ZA […], rHuPH20 10000 U/mL, 100 mL over 16 min, time 3 h; read-out: Zoledronic Acid Serum Concentration

- INPUT SMILES: "O=P(O)(O)C(O)(Cn1ccnc1)P(=O)(O)O"
  concentration at 3 h (ng/mL): 29.8

* * *

# TEST NAME: Phase 1 Stage 1 clinical pharmacokinetics of SC ZA co-administered with rHuPH20
# Assay type: in vivo, human
# MEASUREMENT SETUP: human, serum, sc, serum; ZA 0.25 mg SC infusion + 24000 Units rHuPH20; 10 min post infusion; n=3; read-out: Median Conc.
READOUT: concentration at 10 min (ng/mL)

- INPUT SMILES: "O=P(O)(O)C(O)(Cn1ccnc1)P(=O)(O)O"
  UOM: "ng/mL"
  QUANTITATIVE READOUT: 4.97

* * *

# TEST NAME: Phase 1 Stage 1 clinical pharmacokinetics of SC ZA co-administered with rHuPH20
# Type: in vivo, human
# MEASUREMENT SETUP: human, serum, sc, serum; ZA 5 mg SC infusion + 24000 Units rHuPH20; 48 h post infusion; n=3; read-out: Mean Conc.

- MOLECULE: "O=P(O)(O)C(O)(Cn1ccnc1)P(=O)(O)O [ZA]"
  concentration at 48 h (ng/mL): 1.55

* * *

# TEST NAME: Pharmacokinetics of ZA in pig serum after IV or SC infusion with or without rHuPH20 (LC-MS-MS, non-compartmental analysis)
# Format: in vivo
# MEASUREMENT SETUP: female, Yorkshire, pig, serum, subcutaneous, […], pig 66, Study Group 3, SC, ZA […], rHuPH20 10000 U/mL, 100 mL over 16 min, time 0.5 h; read-out: Zoledronic Acid Serum Concentration
READOUT: concentration at 0.5 h (ng/mL)

- INPUT SMILES: "O=P(O)(O)C(O)(Cn1ccnc1)P(=O)(O)O"
  UOM: "ng/mL"
  QUANTITATIVE READOUT: 78.2

* * *

# TEST NAME: Pharmacokinetics of ZA in pig serum after IV or SC infusion with or without rHuPH20 (LC-MS-MS, non-compartmental analysis)
# Type: in vivo
# MEASUREMENT SETUP: female, Yorkshire, pig, serum, sc, […], pig 69; SC ZA […], 25 mL over 4 min, no rHuPH20; read-out: Vz/F
READOUT: Vd/F (L/kg)

- MOLECULE: "O=P(O)(O)C(O)(Cn1ccnc1)P(=O)(O)O [ZA]"
  QUANTITATIVE READOUT: 0.811

* * *

# TEST NAME: Phase 1 Stage 1 clinical pharmacokinetics of SC ZA co-administered with rHuPH20
# Format: in vivo, human
# MEASUREMENT SETUP: human, serum, sc, serum; ZA 2 mg SC infusion + 24000 Units rHuPH20; 8 h post infusion; n=3; read-out: Median Conc.
# Procedure: A pharmacokinetic study of zoledronic acid (ZA) co-administered with rHuPH20 in human subjects was conducted. […] Serum concentration of ZA was determined using a qualified LC-MS-MS assay after derivatization with diazomethane (Zhu, L S et al. (2006) Rapid Commun. […] The assay range was from 2.0 to 400 ng/mL with a lower limit of quantitation (LLOQ) at 2.0 ng/mL. […] Summary statistics (mean, standard deviation, and median) were calculated using JMP or Microsoft Excel.
READOUT: concentration at 8 h (ng/mL)

- COMPOUND: "O=P(O)(O)C(O)(Cn1ccnc1)P(=O)(O)O [ZA]"
  READOUT: "concentration at 8 h"
  QUANTITATIVE READOUT: 3.34

* * *

# TEST NAME: Pharmacokinetics of ZA in pig serum after IV or SC infusion with or without rHuPH20 (LC-MS-MS, non-compartmental analysis)
# Format: in vivo
# MEASUREMENT SETUP: female, Yorkshire, pig, serum, intravenous, […], animal ID 57, Study Group 1, IV 20 min infusion, ZA […], rHuPH20 0 U/mL, time 4 h; read-out: Zoledronic Acid Serum Concentration

- INPUT SMILES: "O=P(O)(O)C(O)(Cn1ccnc1)P(=O)(O)O"
  concentration at 4 h / ng/mL: 2.8

* * *

# TEST NAME: Phase 1 Stage 1 clinical pharmacokinetics of SC ZA co-administered with rHuPH20
# Format: in vivo, human
# MEASUREMENT SETUP: human, serum, sc, serum; ZA 1 mg SC infusion + 24000 Units rHuPH20; 24 h post infusion; n=3; read-out: Median Conc.

- INPUT SMILES: "O=P(O)(O)C(O)(Cn1ccnc1)P(=O)(O)O"
  concentration at 24 h: "0.51 ng/mL"

* * *

# TEST NAME: Phase 1 Stage 1 clinical pharmacokinetics of SC ZA co-administered with rHuPH20
# Type: in vivo, human
# MEASUREMENT SETUP: human, serum, sc, serum; ZA 1 mg SC infusion + 24000 Units rHuPH20; 0.5 h post infusion; individual subjects; read-out: Zoledronic Acid Concentration
READOUT: concentration at 0.5 h (ng/mL)

- INPUT SMILES: "O=P(O)(O)C(O)(Cn1ccnc1)P(=O)(O)O"
  UOM: "ng/mL"
  QUANTITATIVE READOUT: 33.4
